# Test system: IL-4
# protocol-details: IL-4 levels in sera upon i.v. glycolipid administration to BALB/c mice (ELISA)
# Assay type: in vivo
# Set-up: unit not given here
# measurement-setup: hour 0
recorded-metric: IL-4 level, average
Numbers only.

// solved cases for IL-4 level, average follow
| compound | tested-system | IL-4 level, average |
| --- | --- | --- |
| CCCCCCCCCCCCCCCCCCCCCCCCCC(=O)N[C@@H](CO[C@H]1O[C@H](CO)[C@H](O)[C@H](O)[C@H]1O)[C@H](O)[C@H](O)CCCCCCCCCCCCCC [KRN, reference compound] | IL-4 | 27 |
| CCCCCCCCCCCCCC[C@@H](O)[C@@H](O)[C@H](CC[C@H]1O[C@H](CO)[C@H](O)[C@H](O)[C@H]1O)NC(=O)CCCCCCCCCCCCCCCCCCCOCCCCC | IL-4 | 27 |

Next, consider the following compound.
Prompt: For IL-4, give the measured IL-4 level, average of the entry `CCCCCCCCCCCCCCCCCC/C=C/CCCCCCCCC(=O)N[C@@H](/C=C/[C@H]1O[C@H](CO)[C@H](O)[C@H](O)[C@H]1O)[C@H](O)[C@H](O)CCCCCCCCCCCCCC`
Response: 27
